Target: T1, PUF4 RNA-binding domain (Saccharomyces cerevisiae, UniProt P25339 537-888)
T1 sequence: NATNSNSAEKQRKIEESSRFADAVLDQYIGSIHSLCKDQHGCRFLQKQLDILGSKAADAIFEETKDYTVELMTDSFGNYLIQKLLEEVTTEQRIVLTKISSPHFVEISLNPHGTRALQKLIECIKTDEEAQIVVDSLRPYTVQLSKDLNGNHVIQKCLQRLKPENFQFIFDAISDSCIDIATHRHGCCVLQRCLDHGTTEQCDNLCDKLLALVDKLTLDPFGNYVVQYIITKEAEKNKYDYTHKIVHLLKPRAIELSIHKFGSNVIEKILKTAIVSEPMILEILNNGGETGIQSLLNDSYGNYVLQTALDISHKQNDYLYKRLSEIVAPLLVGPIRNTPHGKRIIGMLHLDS
Assay: Mg; RNA-MaP; 20 mM Na-HEPES pH 7.4, 30 mM KOAc, 0.75 mM MgCl2, 0.1% Tween-20, 5% glycerol, 0.1 mg/mL BSA, 2 mM DTT; 25 C; 0.0125-409.6 nM protein
Conditions: tags: N-His6-TEV cleaved; C-SNAP kept, Cy3B-labelled; label: tethered on chip by stalled RNA polymerase
READOUT KIND: pKd
The read-out pKd is expressed as -log10 of concentration in moles per litre.

Record excerpt, results attached:
# BINDER, MEASURED
rows = [
    ("UCUCUUUUUGUAUAUUAUCUCUU (ssRNA) [Ie_S1_P4E.1_K4.1_C4.1_H4.1_[+1TT]_A4.1_F4.1_T4.1]", 9.04),
    ("Ic_S2_P5E.1_K5.1_C5.1_H5.1_A5.1_[T5G]_[T6C]_[A7T]_F5.1_[T8C]_[T9G]_[A10T]_T5.1 (ssRNA) RNA: UUUGAUUAAUAUGAUAUCGUUCUUUCUUGUAGCUCGUUUCUUUCUCGAUAUCAUAUUAAUCUUU", 6.56),
    ("UCUCUUUCUCUCGUAUAUUAUCUCUU (ssRNA) [Ie_S1_P4E.1_K4.1_C4.1_H4.1_[+1CTCTC]_A4.1_F4.1_T4.1]", 7.55),
    ("Ic_S2_P5E.1_K5.1_C5.1_H5.1_A5.1_[A7C]_F5.1_[T8C]_[T9A]_T5.1 (ssRNA) RNA: UUUGAUUAAUAUGAUAUCGUUCUUUCUUGUAUUCCAAUUCUUUCUCGAUAUCAUAUUAAUCUUU", 6.21),
]

Moving on to the next binder.
Could you please provide reported pKd for UCUCUUUGUAUACGAUCUCUU (ssRNA) [Ic_S1_P4E.1_K4.1_C4.1_H4.1_A4.1_[T7C]_F4.1_[T8G]_T4.1] ? Thanks! 7.38
